methodNotes: logD7.4 in octanol/buffer mixture
Type: physicochemical
reportedConditions: pH 7.4, room temperature

{"compound": "O=C(Cc1ccccc1)Nc1nnc(CCSCCc2nnc(N[11C](=O)Cc3ccccc3)s2)s1 [[^11C]BPTES]", "logD": 3.59}

Value source: paper PMC10384602
